MEASURED TARGET: ITK (Mus musculus, UniProt Q03526)
Construct: mice were sacrificed and splenocytes were isolated and used to prepare protein lysates; from tissue; host or cells: mouse splenocytes (spleen) after oral dosing
Sequence (Q03526 whole entry): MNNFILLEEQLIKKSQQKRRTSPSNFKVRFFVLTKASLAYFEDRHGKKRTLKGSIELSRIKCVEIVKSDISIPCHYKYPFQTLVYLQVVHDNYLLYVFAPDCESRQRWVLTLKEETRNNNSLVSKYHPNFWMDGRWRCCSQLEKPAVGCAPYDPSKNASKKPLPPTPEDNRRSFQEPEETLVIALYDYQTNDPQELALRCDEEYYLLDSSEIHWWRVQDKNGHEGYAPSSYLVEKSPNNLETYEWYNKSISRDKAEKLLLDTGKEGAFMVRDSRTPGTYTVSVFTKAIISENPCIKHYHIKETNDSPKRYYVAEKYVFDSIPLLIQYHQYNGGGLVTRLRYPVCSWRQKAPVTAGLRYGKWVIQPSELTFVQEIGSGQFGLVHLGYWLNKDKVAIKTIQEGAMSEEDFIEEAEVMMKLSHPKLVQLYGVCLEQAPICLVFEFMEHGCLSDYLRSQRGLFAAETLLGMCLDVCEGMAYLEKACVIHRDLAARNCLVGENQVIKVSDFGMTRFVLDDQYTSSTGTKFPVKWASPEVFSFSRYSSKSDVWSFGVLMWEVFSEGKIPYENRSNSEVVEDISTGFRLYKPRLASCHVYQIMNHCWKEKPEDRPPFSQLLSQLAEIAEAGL
ASSAY REMARKS: Mouse PD assay for ITK degradation (Western blot, splenocytes after oral administration)
Type: in vivo
EXPERIMENTAL PARAMETERS: percent ITK remaining in mouse splenocytes relative to vehicle, 90 mpk PO, 6 h
PARAMETER: ITK (%) 90 mpk PO, 6 h

C[C@@H](C(=O)N(C)c1ccc2cc(-c3n[nH]c4c3CCC(C)(C)C4)[nH]c2c1)N1CCN(CC2CCN(c3ccc(N4CCC(=O)NC4=O)cn3)CC2)CC1 [Compound 11] :: 116
C[C@@H](C(=O)N(C)c1ccc2cc(-c3n[nH]c4c3CCC(C)(C)C4)[nH]c2c1)N1CCN(C[C@H]2CCN(c3ccc4c(c3)n(C)c(=O)n4C3CCC(=O)NC3=O)C2)CC1 (stereo partly drawn) [Compound 5] :: 97
Cn1c(=O)n(C2CCC(=O)NC2=O)c2ccc(N3CCC(CN4CCC5(CC4)CCN(c4ccc6cc(-c7n[nH]c8c7CCC(C)(C)C8)[nH]c6c4)C5=O)CC3)cc21 (stereo not drawn) [Compound 14] :: 47

Where do these numbers come from? They come from patent US20240279202A1.
